Value source: a melting point compilation (Tetko et al.; mined from patent text by program, amines drawn as free bases though some values may be those of a salt)

| test.smiles | melting point |
| --- | --- |
| C=CC(=O)Nc1ccc(-c2ccc(C(=O)N3CCN4CCC3CC4)o2)cc1 | 230 to 246 °C |
| Cc1nc(CN(C)C)n(-c2ccc(Cl)cc2C(=O)c2ccccc2Cl)c1CN1C(=O)c2ccccc2C1=O | 121 to 150 °C |
| COC(=O)[C@@H](NC(=O)Oc1ccccc1)C(C)C | 59.1 °C |
| CN(Cc1nc(-c2cc(C(C)(C)C)c(O)c(C(C)(C)C)c2)cn1COCC[Si](C)(C)C)c1ccc([N+](=O)[O-])cc1 | 149 to 151 °C |
| COc1ccc(CSc2cc(C(=O)Nc3ccc(C#N)cc3)ccn2)cc1 | 201 to 203 °C |
| CCOc1csc(NC(C)=O)c1C#N | 242 to 243 °C |
| CCc1ccc(N(Cc2ccc(N3CCOCC3)cc2)C(=O)Nc2c(C(C)C)cccc2C(C)C)cc1 | 159 to 161 °C |
| COC(=O)c1cncc(-c2ccc(OC)c(N)c2)c1 | 98 to 99 °C |
| O=S(=O)(Nc1ccc(C(F)(F)F)cc1I)c1ccccc1 | 84 to 86 °C |
